- TARGET_OR_SYSTEM: HDAC1 (Homo sapiens)
- Construct: purchased BPS Bioscience
- Sequence (Q13547 whole entry): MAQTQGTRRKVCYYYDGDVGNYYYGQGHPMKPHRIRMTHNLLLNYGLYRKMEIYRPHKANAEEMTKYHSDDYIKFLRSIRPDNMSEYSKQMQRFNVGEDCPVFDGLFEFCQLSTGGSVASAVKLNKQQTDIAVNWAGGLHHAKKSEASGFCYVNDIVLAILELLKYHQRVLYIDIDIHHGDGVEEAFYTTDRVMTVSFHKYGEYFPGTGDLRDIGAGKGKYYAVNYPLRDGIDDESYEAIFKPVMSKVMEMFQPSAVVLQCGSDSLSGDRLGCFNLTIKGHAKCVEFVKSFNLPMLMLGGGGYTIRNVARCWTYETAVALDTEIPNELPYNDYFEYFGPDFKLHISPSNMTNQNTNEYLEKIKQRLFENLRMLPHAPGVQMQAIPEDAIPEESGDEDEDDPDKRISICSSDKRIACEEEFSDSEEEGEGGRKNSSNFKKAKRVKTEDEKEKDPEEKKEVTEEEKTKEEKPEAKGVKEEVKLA
- EXPERIMENT: HDAC inhibitory activity, fluorescence-coupled acetylated peptide substrate assay (Lys-Ac-AMC)
- Assay type: biochemical
- TEST_PARAMETERS: Table 2
pIC50: −log10 of the molar value.
MEASURED_METRIC: pIC50

Here is how some molecules turned out for pIC50.
| MOLECULAR_STRING | pIC50 |
| --- | --- |
| Cc1nc(N(C)c2ccc(Oc3ccc(C(=O)NO)cn3)cc2)c2ccccc2n1 | 6.00 to 7.00 |
| CN(c1ccc(Oc2ccc(C(=O)NO)cn2)cc1)c1ncnc2ccccc12 | 6.00 to 7.00 |
| Cc1nc(N(C)c2cccc(OCCCCCC(=O)NO)c2)c2ccccc2n1 | 7.00 to 8.00 |
| CCCN(c1ccc(OC)c(OCCCC(=O)NO)c1)c1nc(C)nc2ccccc12 | < 6.00 |

Could I get pIC50 for every one of these entries?
1. Cc1nc(Nc2ccc(OCCC(=O)NO)cc2)c2ccccc2n1
2. Cc1nc(N(C)c2cccc(OCC(=O)NO)c2)c2ccccc2n1
3. CN(c1ccc(OCc2ccc(C(=O)NO)cc2)cc1)c1ncnc2ccccc12
4. Cc1nc(N(C)c2cccc(OCCCC(=O)NO)c2)c2ccccc2n1
5. CN(c1ccc(OCCCC(=O)NO)cc1)c1ncnc2ccccc12
6. COc1ccc(N(C)c2nc(C)nc3ccccc23)cc1OCCCC(=O)NO
7. Cc1nc(N(C)c2ccc(OCCCCC(=O)NO)cc2)c2ccccc2n1

Response:
["< 6.00", "6.00 to 7.00", "6.00 to 7.00", "6.00 to 7.00", "7.00 to 8.00", "6.00 to 7.00", "6.00 to 7.00"]

====

- TARGET_OR_SYSTEM: UniProt:Q9BY41
- Sequence (Q9BY41 whole entry): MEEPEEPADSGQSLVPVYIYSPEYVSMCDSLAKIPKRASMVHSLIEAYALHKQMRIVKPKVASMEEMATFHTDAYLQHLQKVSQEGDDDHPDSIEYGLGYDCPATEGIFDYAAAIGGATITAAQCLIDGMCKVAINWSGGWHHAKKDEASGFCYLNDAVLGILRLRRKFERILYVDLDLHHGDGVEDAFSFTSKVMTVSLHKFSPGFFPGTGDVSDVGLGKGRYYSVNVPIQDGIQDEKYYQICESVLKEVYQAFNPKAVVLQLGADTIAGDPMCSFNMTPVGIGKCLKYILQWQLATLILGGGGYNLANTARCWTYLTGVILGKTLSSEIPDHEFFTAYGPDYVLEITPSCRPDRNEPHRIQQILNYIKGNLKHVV
- EXPERIMENT: HDAC inhibitory activity, fluorescence-coupled acetylated peptide substrate assay
- TEST_PARAMETERS: IC50 HDAC8, Table 2
Could you please report measured IC50 for the items listed next?

Please review the entries below; each comes with its answer.
| MOLECULAR_STRING | TARGET_OR_SYSTEM | MEASURED_METRIC | MEAS_VALUE |
| --- | --- | --- | --- |
| Cc1nc(N(C)c2ccc(OCc3ccc(C(=O)NO)cc3)cc2)c2ccccc2n1 | UniProt:Q9BY41 | IC50 | > 1000 nM |
| Cc1nc(Nc2ccc(OCCC(=O)NO)cc2)c2ccccc2n1 | UniProt:Q9BY41 | IC50 | > 1000 nM |

Query: Consider the molecule CN(c1ccc(OCCCCCC(=O)NO)cc1)c1ncnc2ccccc12 and give its measured IC50.
Response: > 1000 nM

====

- Test system: Human cervical cancer cell Hela
- EXPERIMENT: Cell proliferative activity (MTT / cck-8)
- Assay type: cell-based
- TEST_PARAMETERS: Cervical cancer, Table 5, read-out: Half-Inhibitory Concentration IC50 Hela
MEASURED_METRIC: pIC50
Answers are plain numbers, as −log10 of the molar value.

Query: State the recorded pIC50 for this entry: COc1ccc(N(C)c2nc(C)nc3ccccc23)cc1OCCCC(=O)NO
Response: 7.31

====

- System: Breast cancer SKBR3
- EXPERIMENT: Cell proliferative activity (MTT / cck-8)
- Assay type: cell-based
- TEST_PARAMETERS: Homo sapiens, SK-BR-3, read-out: Half-Inhibitory Concentration IC50 SKBR3
MEASURED_METRIC: IC50 (nM)
Answers are plain numbers, in nM.

Query: What is its IC50 for Breast cancer SKBR3? Entry: COc1ccc(N(C)c2nc(C)nc3ccccc23)cc1OCCCC(=O)NO
Response: 22
